assay notes: amyloid nucleation score (Sup35N fusion, yeast selection) (log enrichment); library NNK2; higher = more nucleation; inactive = no reads after selection;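 further: zero at mode of non-aggregating sequences after 7 days selection at 30°C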
amyloid nucleation score: recorded values
attribute measured: amyloid nucleation score

[
  {
    "substance": "RVWDNSVLGWQQGFSTVERV",
    "observed value": 0.766
  },
  {
    "substance": "CSYSFDLTANICPISLNVVC",
    "observed value": 5
  },
  {
    "substance": "IGKRASSPYYRPSIVVYSWD",
    "observed value": -0.302
  },
  {
    "substance": "WFISPKDKGRASIHLNEYRW",
    "observed value": 3.97
  },
  {
    "substance": "IPYYIDKKQSKMCNGFWS",
    "observed value": 0.572
  },
  {
    "substance": "LKSDRSLMLIEPALDLIWYF",
    "observed value": -0.27
  },
  {
    "substance": "LGFDASLKLFLVQQGLSN",
    "observed value": -0.341
  },
  {
    "substance": "IWTTYFMGLRT",
    "observed value": -0.394
  },
  {
    "substance": "NEYMYVR",
    "observed value": 0.969
  },
  {
    "substance": "YYMTRVSPFQSFIVIMGASQ",
    "observed value": 1.89
  },
  {
    "substance": "ERKHTFHAVGHGLQESLVRF",
    "observed value": -0.212
  },
  {
    "substance": "CIDVSLFNGHACWIVCFSPV",
    "observed value": 5.48
  },
  {
    "substance": "DKRIGRVCHSLKIVWCTIML",
    "observed value": -0.089
  },
  {
    "substance": "TSSFIRLNYSNALLNKFWSN",
    "observed value": -1.99
  },
  {
    "substance": "SFWISVGLWFWLGEYMGRNE",
    "observed value": 2.17
  },
  {
    "substance": "EIMSFSVRSKYAFWIPIAIC",
    "observed value": -0.026
  },
  {
    "substance": "GNYISICESFF",
    "observed value": -0.177
  },
  {
    "substance": "VRLPLIVYLKSAYTSPPWGS",
    "observed value": -0.702
  },
  {
    "substance": "VFILWFTVSATIKKESFGNN",
    "observed value": -2.34
  },
  {
    "substance": "HRTLFKGPSWLPKRRERAIL",
    "observed value": -0.097
  },
  {
    "substance": "VIAFYVAFFNRTRVSYRSLW",
    "observed value": 4.22
  },
  {
    "substance": "VYCVGNMSLGGLMDNCWYAG",
    "observed value": 4.41
  },
  {
    "substance": "RIQWKDGYHVARRVFIGNTG",
    "observed value": -0.449
  },
  {
    "substance": "YFLVKFSSNTFIVWTHRYFQ",
    "observed value": 0.057
  },
  {
    "substance": "RPIKRV",
    "observed value": 0.173
  },
  {
    "substance": "IVQSSTAKHEDQVFGKKV",
    "observed value": 1.24
  },
  {
    "substance": "YGAYVYINSFCKYNIIRSRS",
    "observed value": 6.03
  },
  {
    "substance": "CVKQWRTIIVTLYLGTLPK",
    "observed value": 4.21
  },
  {
    "substance": "RCREWYMR",
    "observed value": -0.568
  },
  {
    "substance": "VERIKLFASAHYS",
    "observed value": -0.203
  },
  {
    "substance": "SFIHDWTNFHGSLGFDYGCD",
    "observed value": 0.112
  },
  {
    "substance": "LFCTRMEVSLLGFWNSYAEL",
    "observed value": -0.01
  },
  {
    "substance": "VRQYPSTVPSLWLYVGSRH",
    "observed value": 4.19
  },
  {
    "substance": "SLDIDQTVRFTTK",
    "observed value": 5.62
  },
  {
    "substance": "NKYYLSNLMTCLAQKLSSSG",
    "observed value": 0.053
  },
  {
    "substance": "VKAVMWIDLVNRVIMNGHIS",
    "observed value": -0.461
  },
  {
    "substance": "SCIDCLRLSLLSGCIHWVNY",
    "observed value": 0.509
  },
  {
    "substance": "WEASSFKVSGLSGSHHPSKG",
    "observed value": 2.3
  },
  {
    "substance": "GIVVFINEMLTNTNPGKS",
    "observed value": 6.95
  },
  {
    "substance": "FSNIVNCSDRCATCVYFEFV",
    "observed value": 4.81
  },
  {
    "substance": "LSAKWCTECNLAASRRLNIN",
    "observed value": 0.034
  },
  {
    "substance": "LSVSDEVRQV",
    "observed value": -0.466
  },
  {
    "substance": "AEVCEVRTFVPYSCLFYSST",
    "observed value": 5.22
  },
  {
    "substance": "DRYHDTMAMKARVWSDRCKS",
    "observed value": 1.94
  },
  {
    "substance": "VNNATKIGWSSMAIRDNKTI",
    "observed value": -0.142
  },
  {
    "substance": "HKGCGNSCIWHYFGNFWRFR",
    "observed value": -0.658
  },
  {
    "substance": "MAVLEMRDRWCDLLLTTSRV",
    "observed value": 0.155
  },
  {
    "substance": "IMNKVAWWIFMRMLSRGFVT",
    "observed value": -1.1
  },
  {
    "substance": "GNGRHC",
    "observed value": -0.021
  },
  {
    "substance": "QFNKIDWMHKMFTSSRVNMS",
    "observed value": -0.166
  },
  {
    "substance": "RFVKTGYTYDLVGTVLHCLS",
    "observed value": 5.97
  },
  {
    "substance": "IVHQGLLIRPIDGVGRLTLS",
    "observed value": 4.05
  },
  {
    "substance": "CSAITGY",
    "observed value": 0.564
  },
  {
    "substance": "IDVGYIYGMVCWQTG",
    "observed value": 4.08
  },
  {
    "substance": "PTRIFSCSRSGGWYYL",
    "observed value": -0.831
  },
  {
    "substance": "FFDRMLYLRVARCTTFWPVD",
    "observed value": 0.492
  },
  {
    "substance": "AFSNSM",
    "observed value": 0.988
  },
  {
    "substance": "RGVCLNNLMWGTLGTRKALL",
    "observed value": -0.797
  },
  {
    "substance": "PCNLKNNCVSEWIGLFVQPQ",
    "observed value": 2.23
  },
  {
    "substance": "DSFVIAVLQIIPYTLTQHSK",
    "observed value": 1.7
  }
]

Value source: the supplement of paper PMC12042874
